Measured values drawn from patent US9527850B2 for this set.

Please provide measured pIC50 for the entries that follow.
# TARGET: LPA2 receptor (LPA2R) (Homo sapiens, UniProt Q9HBW0)
# Sequence (Q9HBW0 whole entry): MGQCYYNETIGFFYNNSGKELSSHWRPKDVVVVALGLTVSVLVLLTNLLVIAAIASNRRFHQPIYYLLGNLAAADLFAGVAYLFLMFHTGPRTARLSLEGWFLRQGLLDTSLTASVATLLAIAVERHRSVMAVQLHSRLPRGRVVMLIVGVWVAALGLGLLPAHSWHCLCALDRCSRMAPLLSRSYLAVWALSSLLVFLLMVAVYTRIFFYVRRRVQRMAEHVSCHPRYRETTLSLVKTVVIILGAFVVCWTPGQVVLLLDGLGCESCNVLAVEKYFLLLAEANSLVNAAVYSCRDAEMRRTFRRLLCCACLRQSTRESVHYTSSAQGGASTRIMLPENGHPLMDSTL
# PROTOCOL DETAILS: LPA2R-Calciumflux assay (intracellular calcium mobilisation, FLIPR)
# MEASUREMENT CONDITIONS: U2OS cells recombinant expressing LPA2R; inhibition of LPA-induced Ca-flux; 10 concentrations 30 uM to 1 nM, 1% DMSO
pIC50: −log10 of the molar value.

Please review the following examples before continuing.
{"columns": ["COMPOUND", "pIC50"],
 "data": [
  ["Cn1cccc1CN1CCCCC1c1cc2ccccc2[nH]1 (centres unmarked) [compound 10]", "4.82 to 5.30"],
  ["CC1CCC(c2cc3cc(F)ccc3[nH]2)N(Cc2ccc(F)cc2)C1 (centres unmarked) [compound 61]", "5.30 to 6.30"],
  ["NS(=O)(=O)c1ccc2nc(C3CCCCN3Cc3cccc(C(F)(F)F)c3)[nH]c2c1 (centres unmarked) [compound 115]", "5.30 to 6.30"]
]}

Could you report pIC50 for every entry in the following list?
1. Cc1ccc(CN2CCCC[C@@H]2c2nc3cc(Cl)cnc3[nH]2)cc1C [compound 140]
2. Cc1cccc(CN2C(C)CCCC2c2cc3cc(F)ccc3[nH]2)c1 (centres unmarked) [compound 30]

// result
1. 5.30 to 6.30
2. > 6.30

---

# TARGET: LPA2 receptor (LPA2R) (Homo sapiens, UniProt Q9HBW0)
# PROTOCOL DETAILS: LPA2R-Calciumflux assay (intracellular calcium mobilisation, FLIPR)
# MEASUREMENT CONDITIONS: U2OS cells recombinant expressing LPA2R; inhibition of LPA-induced Ca-flux; 10 concentrations 30 uM to 1 nM, 1% DMSO
Please provide measured IC50 for the entries that follow.

{"columns": ["MOLECULE", "TARGET", "IC50"],
 "data": [
  ["Cc1cc2nc(C3CCCCN3Cc3ccc(C)c(C(F)(F)F)c3)[nH]c2cc1Cl (stereo not drawn)", "LPA2 receptor (LPA2R) (Homo sapiens, UniProt Q9HBW0)", "500 to 5000 nM"],
  ["Fc1ccc2[nH]c(C3CCCCN3Cc3ccccn3)cc2c1 (stereo not drawn)", "LPA2 receptor (LPA2R) (Homo sapiens, UniProt Q9HBW0)", "500 to 5000 nM"],
  ["Fc1ccc2[nH]c(C3CCCCN3Cc3ccc(Cl)cc3Cl)cc2c1 (stereo not drawn)", "LPA2 receptor (LPA2R) (Homo sapiens, UniProt Q9HBW0)", "5000 to 15000 nM"],
  ["Fc1ccc2[nH]c(C3CCCCN3Cc3ccc(Br)cc3)cc2c1 (stereo not drawn)", "LPA2 receptor (LPA2R) (Homo sapiens, UniProt Q9HBW0)", "500 to 5000 nM"],
  ["Cc1cccc(CN2CCCCC2c2cc3ccccc3[nH]2)c1 (stereo not drawn)", "LPA2 receptor (LPA2R) (Homo sapiens, UniProt Q9HBW0)", "< 500 nM"]
]}

Could you report IC50 for every entry in the following list?
1. Cc1cccc(CN2CCCCC2c2nc3ccc(S(N)(=O)=O)cc3[nH]2)c1 (stereo not drawn)
2. Cc1cc2nc(C3CCCCN3Cc3ccc4c(c3)C(C)(C)CCC4(C)C)[nH]c2cc1Cl (stereo not drawn)

// result
["< 500 nM", "500 to 5000 nM"]

---

Please provide measured pIC50 for the entries that follow.
# TARGET: LPA2 receptor (LPA2R) (Homo sapiens, UniProt Q9HBW0)
# PROTOCOL DETAILS: LPA2R-Calciumflux assay (intracellular calcium mobilisation, FLIPR)
# MEASUREMENT CONDITIONS: U2OS cells recombinant expressing LPA2R; inhibition of LPA-induced Ca-flux; 10 concentrations 30 uM to 1 nM, 1% DMSO
# Protocol: The assay detects intra cellular calcium which is generated by cells upon activation of the LPA2 receptor by its ligand LPA. This transient calcium mobilization can be monitored using a commercial calcium detection kit (e.g. from Molecular Devices). The main component of such a kit is a dye, which becomes fluorescent when calcium is present—a transient fluorescence signal after laddition of a ligand to a test well are the result. […] The signals are calculated according to peak maximum minus base line. […]
pIC50: −log10 of the molar value.

Please review the following examples before continuing.
{"columns": ["COMPOUND", "pIC50"],
 "data": [
  ["Cc1ccc2c(CN3CCCCC3c3cc4cc(F)ccc4[nH]3)cn(C)c2c1 (centres unmarked)", "5.30 to 6.30"],
  ["Cc1ccc(CN2CCCC[C@H]2c2cc3ccccc3[nH]2)cc1", "< 4.82"],
  ["Cc1ccc(CN2CCCCC2c2nc3nccnc3[nH]2)cc1C (centres unmarked)", "> 6.30"],
  ["CC(c1ccc(F)cc1)N1CCCCC1c1cc2cc(F)ccc2[nH]1 (centres unmarked)", "> 6.30"],
  ["Cc1cc2nc(C3CCCCN3Cc3cccc(C(F)(F)F)c3)[nH]c2cc1Cl (centres unmarked)", "> 6.30"]
]}

Could you report pIC50 for every entry in the following list?
1. COc1ccc(CN2CCC(C)CC2c2cc3ccccc3[nH]2)cc1 (centres unmarked)
2. Cc1c(C2CCCCN2Cc2ccc(F)cc2)[nH]c2ccc(F)cc12 (centres unmarked)

// result
1: 5.30 to 6.30; 2: > 6.30

// query Give its pIC50 value. Item: Cc1cc(C)cc(CN2CCCCC2c2cc3cc(F)ccc3[nH]2)c1 (centres unmarked)
// result > 6.30

---

Please provide measured pIC50 for the entries that follow.
# TARGET: UniProt Q9HBW0
# PROTOCOL DETAILS: LPA2R-Calciumflux assay (intracellular calcium mobilisation, FLIPR)
# MEASUREMENT CONDITIONS: U2OS cells recombinant expressing LPA2R; inhibition of LPA-induced Ca-flux; 10 concentrations 30 uM to 1 nM, 1% DMSO
pIC50: −log10 of the molar value.

Please review the following examples before continuing.
{"columns": ["MOLECULE", "TARGET", "EXPERIMENTAL VALUE"],
 "data": [
  ["Cc1ccc(CN2C(C)CCCC2c2cc3cc(F)ccc3[nH]2)o1 (stereo not shown)", "UniProt Q9HBW0", "> 6.30"],
  ["COc1ccc(CN2CCC(C)CC2c2cc3cc(F)ccc3[nH]2)cc1 (stereo not shown)", "UniProt Q9HBW0", "5.30 to 6.30"]
]}

Could you report pIC50 for every entry in the following list?
1. Cc1ccc(CN2CCCCC2c2cc3c(F)ccc(F)c3[nH]2)cc1C (stereo not shown)
2. Brc1ccc(CN2CCCCC2c2cc3ccccc3[nH]2)cc1 (stereo not shown)

// result
1. 5.30 to 6.30
2. 5.30 to 6.30

Could you report pIC50 for every entry in the following list?
1. COc1cc(CN2CCCCC2c2cc3cc(F)ccc3[nH]2)cc(OC)c1 (stereo not shown)
2. CC1CCCC(c2cc3cc(F)ccc3[nH]2)N1Cc1cccnc1 (stereo not shown)

// result
["5.30 to 6.30", "5.30 to 6.30"]

Could you report pIC50 for every entry in the following list?
1. Fc1ccc2[nH]c(C3CCCCN3Cc3csc(Cl)n3)nc2c1 (stereo not shown)
2. Cc1ccc(CN2CCCCC2c2nc3cccc(C)c3[nH]2)cc1C (stereo not shown)

// result
1: 5.30 to 6.30; 2: > 6.30

Could you report pIC50 for every entry in the following list?
1. CCOc1ccc(CN2C(C)CCCC2c2cc3cc(F)ccc3[nH]2)cc1 (stereo not shown)
2. CCOC(=O)c1ccc(CN2C(C)CCCC2c2cc3cc(F)ccc3[nH]2)cc1 (stereo not shown)

// result
5.30 to 6.30
5.30 to 6.30

Could you report pIC50 for every entry in the following list?
1. Fc1ccc(CN2CCCC[C@H]2c2cc3cc(F)ccc3[nH]2)cc1
2. CC1CCCC(c2cc3cc(F)ccc3[nH]2)N1Cc1ccccc1O (stereo not shown)
3. Fc1ccc(CN2CCCCC2c2nc3cc(Cl)cnc3[nH]2)cc1 (stereo not shown)

// result
["5.30 to 6.30", "5.30 to 6.30", "> 6.30"]

Could you report pIC50 for every entry in the following list?
1. Fc1ccc(CN2CCCCC2c2nc3nccnc3[nH]2)cc1 (stereo not shown)
2. COc1ccc(CN2CCCCC2c2cc3cc(Cl)ccc3[nH]2)cc1 (stereo not shown)
3. N#Cc1ccc(CN2CCCCC2c2cc3c(F)ccc(F)c3[nH]2)cc1 (stereo not shown)
4. Fc1ccc2[nH]c(C3CCCCN3Cc3ccccc3)nc2c1 (stereo not shown)
5. Fc1ccc(CCCN2CCCCC2c2cc3cc(F)ccc3[nH]2)cc1 (stereo not shown)
6. Cc1ccc(CN2CCCCC2c2cc3cc(F)cc(F)c3[nH]2)cc1 (stereo not shown)

// result
1. 4.82 to 5.30
2. > 6.30
3. 4.82 to 5.30
4. 5.30 to 6.30
5. 4.82 to 5.30
6. 4.82 to 5.30
